Molecular target: UniProt P32245
pKi: −log10 of the molar value.
Rule: pKi under 7 gives n, otherwise y.

# chem.smiles, target.of.assay, qualitative.label
records = [
    ("N=C(N)NCCC[C@@H]1NC(=O)[C@@H](Cc2ccc3ccccc3c2)NC(=O)C2(Cc3ccccc3C2)N2C(=O)N[C@@H](CC(=O)NCCCC[C@@H](C(N)=O)NC(=O)[C@H](Cc3c[nH]c4ccccc34)NC1=O)C2=O", "UniProt P32245", "y"),
    ("N=C(N)NCCC[C@@H]1NC(=O)[C@@H](Cc2ccc3ccccc3c2)NC(=O)C2(CCCCC2)N2C(=O)N[C@@H](CC(=O)NCCCC[C@@H](C(N)=O)NC(=O)[C@H](Cc3c[nH]c4ccccc34)NC1=O)C2=O", "UniProt P32245", "y"),
    ("C[C@@H]1C(=O)N[C@@H](Cc2cnc[nH]2)C(=O)N[C@H](Cc2ccccc2)C(=O)N[C@@H](CCCNC(=N)N)C(=O)N[C@@H](Cc2c[nH]c3ccccc23)C(=O)N[C@H](C(N)=O)CCCNC(=O)C[C@@H]2NC(=O)N1C2=O", "UniProt P32245", "y"),
    ("C[C@@H]1C(=O)N[C@@H](Cc2cnc[nH]2)C(=O)N[C@H](Cc2ccccc2)C(=O)N[C@@H](CCCNC(=N)N)C(=O)N[C@@H](Cc2c[nH]c3ccccc23)C(=O)N[C@H](C(N)=O)CCCCNC(=O)CC[C@@H]2NC(=O)N1C2=O", "UniProt P32245", "y"),
    ("N=C(N)NCCC[C@@H]1NC(=O)[C@@H](Cc2ccc3ccccc3c2)NC(=O)C2(CC2)N2C(=O)N[C@@H](CC(=O)NCCCC[C@@H](C(N)=O)NC(=O)[C@H](Cc3c[nH]c4ccccc34)NC1=O)C2=O", "UniProt P32245", "n"),
]

---

Biological target: hMC3 (Homo sapiens)
Construct: expressed in transfected cells; host or cells: CHO-K1
Sequence (P41968 whole entry): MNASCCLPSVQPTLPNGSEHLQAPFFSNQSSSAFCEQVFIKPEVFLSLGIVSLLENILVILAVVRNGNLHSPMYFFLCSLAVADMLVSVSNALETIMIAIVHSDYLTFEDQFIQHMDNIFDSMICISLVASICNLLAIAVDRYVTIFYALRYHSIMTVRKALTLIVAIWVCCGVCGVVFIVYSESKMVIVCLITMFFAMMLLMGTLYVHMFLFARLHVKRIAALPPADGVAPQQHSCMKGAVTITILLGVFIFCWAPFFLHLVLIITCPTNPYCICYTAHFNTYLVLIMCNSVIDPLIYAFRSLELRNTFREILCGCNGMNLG
Test: Cyclic AMP bioassay (ECL), CHO-K1 cells expressing hMC3
Assay type: cell-based
Settings: intracellular cAMP
Listing: EC50 of selected compounds

# chem.smiles, value.unit, EC50
rows = [
    ("N=C(N)NCCC[C@@H]1NC(=O)[C@@H](Cc2ccccc2)NC(=O)[C@H](Cc2cnc[nH]2)NC(=O)[C@H](CCC(=O)O)NC(=O)[C@@H](NC(=O)[C@@H](CCCNC(=N)N)N2C(=O)CNC2=O)CSSC[C@@H](C(N)=O)NC(=O)[C@H](Cc2c[nH]c3ccccc23)NC1=O", "nM", 10.3),
    ("C[C@@H]1C(=O)N[C@@H](Cc2cnc[nH]2)C(=O)N[C@H](Cc2ccccc2)C(=O)N[C@@H](CCCNC(=N)N)C(=O)N[C@@H](Cc2c[nH]c3ccccc23)C(=O)N[C@H](C(N)=O)CCCNC(=O)CC[C@@H]2NC(=O)N1C2=O", "nM", 39.2),
    ("C[C@@H]1C(=O)N[C@@H](Cc2cnc[nH]2)C(=O)N[C@H](Cc2ccccc2)C(=O)N[C@@H](CCCNC(=N)N)C(=O)N[C@@H](Cc2c[nH]c3ccccc23)C(=O)N[C@H](C(N)=O)CNC(=O)CC[C@@H]2NC(=O)N1C2=O", "nM", 18.2),
    ("C[C@H]1NC(=O)[C@@H](NC(=O)CN2C(=O)N[C@H](C)C2=O)CSSC[C@@H](C(N)=O)NC(=O)[C@H](Cc2c[nH]c3ccccc23)NC(=O)[C@H](CCCNC(=N)N)NC(=O)[C@@H](Cc2ccccc2)NC(=O)[C@H](Cc2cnc[nH]2)NC1=O", "nM", 2.22),
]

---

Biological target: hMC1 (Homo sapiens)
Sequence (Q01726 whole entry): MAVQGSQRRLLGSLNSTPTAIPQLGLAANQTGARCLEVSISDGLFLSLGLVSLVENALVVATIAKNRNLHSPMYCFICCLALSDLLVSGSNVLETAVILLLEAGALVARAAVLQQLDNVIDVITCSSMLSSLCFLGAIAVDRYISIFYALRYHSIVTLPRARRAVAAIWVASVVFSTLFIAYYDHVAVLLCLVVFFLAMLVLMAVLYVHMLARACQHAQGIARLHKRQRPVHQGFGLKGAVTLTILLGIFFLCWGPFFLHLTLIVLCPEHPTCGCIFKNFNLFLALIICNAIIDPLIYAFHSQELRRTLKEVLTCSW
Threshold 0.06 µM. Ki below it: fulfilled. Ki at it or above: not fulfilled.

# chem.smiles, target.of.assay, qualitative.label
measured = [
    ("N=C(N)NCCC[C@@H]1NC(=O)[C@@H](Cc2ccc3ccccc3c2)NC(=O)C2(Cc3ccccc3C2)N2C(=O)N[C@@H](CC(=O)NCCCC[C@@H](C(N)=O)NC(=O)[C@H](Cc3c[nH]c4ccccc34)NC1=O)C2=O", "hMC1 (Homo sapiens)", "not fulfilled"),
    ("C[C@@H]1C(=O)N[C@@H](Cc2cnc[nH]2)C(=O)N[C@H](Cc2ccccc2)C(=O)N[C@@H](CCCNC(=N)N)C(=O)N[C@@H](Cc2c[nH]c3ccccc23)C(=O)N[C@H](C(N)=O)CNC(=O)CC[C@@H]2NC(=O)N1C2=O", "hMC1 (Homo sapiens)", "fulfilled"),
    ("N=C(N)NCCC[C@@H]1NC(=O)[C@@H](Cc2ccc3ccccc3c2)NC(=O)C2(CCCCC2)N2C(=O)N[C@@H](CC(=O)NCCCC[C@@H](C(N)=O)NC(=O)[C@H](Cc3c[nH]c4ccccc34)NC1=O)C2=O", "hMC1 (Homo sapiens)", "not fulfilled"),
    ("N=C(N)NCCC[C@@H]1NC(=O)[C@@H](Cc2ccc3ccccc3c2)NC(=O)C2(CC2)N2C(=O)N[C@@H](CC(=O)NCCCC[C@@H](C(N)=O)NC(=O)[C@H](Cc3c[nH]c4ccccc34)NC1=O)C2=O", "hMC1 (Homo sapiens)", "not fulfilled"),
]

---

Molecular target: hMC4 (Homo sapiens)
Sequence (P32245 whole entry): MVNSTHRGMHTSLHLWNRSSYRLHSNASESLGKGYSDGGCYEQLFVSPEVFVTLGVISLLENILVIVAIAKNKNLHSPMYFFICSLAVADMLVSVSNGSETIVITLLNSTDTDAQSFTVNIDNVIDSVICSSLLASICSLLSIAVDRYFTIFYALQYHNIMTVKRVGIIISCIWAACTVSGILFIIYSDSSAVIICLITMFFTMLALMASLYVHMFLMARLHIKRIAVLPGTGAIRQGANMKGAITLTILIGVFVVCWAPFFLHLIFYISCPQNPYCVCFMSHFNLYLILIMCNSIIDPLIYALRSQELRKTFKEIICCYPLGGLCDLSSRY
Experiment: Cyclic AMP bioassay (ECL), CHO-K1 cells expressing hMC4
Settings: intracellular cAMP
pEC50: −log10 of the molar value.
measure.name: pEC50

# chem.smiles, target.of.assay, val
records = [
    ("C[C@H]1NC(=O)[C@@H](NC(=O)[C@@H](CCCNC(=N)N)N2C(=O)CNC2=O)CSSC[C@@H](C(N)=O)NC(=O)[C@H](Cc2c[nH]c3ccccc23)NC(=O)[C@H](CCCNC(=N)N)NC(=O)[C@@H](Cc2ccccc2)NC(=O)[C@H](Cc2cnc[nH]2)NC1=O", "hMC4 (Homo sapiens)", 9.36),
    ("C[C@H]1NC(=O)[C@@H](NC(=O)CN2C(=O)N[C@H](CCCNC(=N)N)C2=O)CSSC[C@@H](C(N)=O)NC(=O)[C@H](Cc2c[nH]c3ccccc23)NC(=O)[C@H](CCCNC(=N)N)NC(=O)[C@@H](Cc2ccccc2)NC(=O)[C@H](Cc2cnc[nH]2)NC1=O", "hMC4 (Homo sapiens)", 9.29),
    ("C[C@@H]1C(=O)N[C@@H](Cc2cnc[nH]2)C(=O)N[C@H](Cc2ccccc2)C(=O)N[C@@H](CCCNC(=N)N)C(=O)N[C@@H](Cc2c[nH]c3ccccc23)C(=O)N[C@H](C(N)=O)CCCCNC(=O)CC[C@@H]2NC(=O)N1C2=O", "hMC4 (Homo sapiens)", 8.44),
    ("C[C@@H]1C(=O)N[C@@H](Cc2cnc[nH]2)C(=O)N[C@H](Cc2ccccc2)C(=O)N[C@@H](CCCNC(=N)N)C(=O)N[C@@H](Cc2c[nH]c3ccccc23)C(=O)N[C@H](C(N)=O)CCCNC(=O)CC[C@@H]2NC(=O)N1C2=O", "hMC4 (Homo sapiens)", 8.31),
]

---

Target: hMC3 (Homo sapiens)
pKi: −log10 of the molar value.
Rule: pKi under 6 gives f, otherwise t.

# chem.smiles, qualitative.label
rows = [
    ("N=C(N)NCCC[C@@H]1NC(=O)[C@@H](Cc2ccc3ccccc3c2)NC(=O)C2(CCCC2)N2C(=O)N[C@@H](CC(=O)NCCCC[C@@H](C(N)=O)NC(=O)[C@H](Cc3c[nH]c4ccccc34)NC1=O)C2=O", "f"),
    ("N=C(N)NCCC[C@@H]1NC(=O)[C@@H](Cc2ccccc2)NC(=O)[C@H](Cc2cnc[nH]2)NC(=O)[C@H](CCC(=O)O)NC(=O)[C@@H](NC(=O)CN2C(=O)N[C@H](CCCNC(=N)N)C2=O)CSSC[C@@H](C(N)=O)NC(=O)[C@H](Cc2c[nH]c3ccccc23)NC1=O", "t"),
    ("N=C(N)NCCC[C@@H]1NC(=O)[C@@H](Cc2ccc3ccccc3c2)NC(=O)C2(Cc3ccccc3C2)N2C(=O)N[C@@H](CC(=O)NCCCC[C@@H](C(N)=O)NC(=O)[C@H](Cc3c[nH]c4ccccc34)NC1=O)C2=O", "f"),
    ("C[C@@H]1C(=O)N[C@@H](Cc2cnc[nH]2)C(=O)N[C@H](Cc2ccccc2)C(=O)N[C@@H](CCCNC(=N)N)C(=O)N[C@@H](Cc2c[nH]c3ccccc23)C(=O)N[C@H](C(N)=O)CCCCNC(=O)CC[C@@H]2NC(=O)N1C2=O", "f"),
]

---

Target: hMC5 (Homo sapiens, UniProt P33032)
Construct: expressed in transfected cells; host or cells: CHO-K1
Sequence (P33032 whole entry): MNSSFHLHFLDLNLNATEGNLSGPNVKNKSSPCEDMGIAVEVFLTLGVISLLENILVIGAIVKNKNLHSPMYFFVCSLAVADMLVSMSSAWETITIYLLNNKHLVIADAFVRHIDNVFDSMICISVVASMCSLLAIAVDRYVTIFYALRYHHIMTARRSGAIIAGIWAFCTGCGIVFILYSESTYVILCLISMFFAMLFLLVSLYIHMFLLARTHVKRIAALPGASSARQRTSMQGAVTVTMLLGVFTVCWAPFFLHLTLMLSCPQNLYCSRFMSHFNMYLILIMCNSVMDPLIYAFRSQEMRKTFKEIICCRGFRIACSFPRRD
Assay: Cyclic AMP bioassay (ECL), CHO-K1 cells expressing hMC5
Assay type: cell-based
Settings: intracellular cAMP
pEC50: −log10 of the molar value.
Listing: pEC50 of selected molecules

# chem.smiles, inequality.sign, pEC50
records = [
    ("C[C@H]1NC(=O)[C@@H](NC(=O)CN2C(=O)N[C@H](CCCNC(=N)N)C2=O)CSSC[C@@H](C(N)=O)NC(=O)[C@H](Cc2c[nH]c3ccccc23)NC(=O)[C@H](CCCNC(=N)N)NC(=O)[C@@H](Cc2ccccc2)NC(=O)[C@H](Cc2cnc[nH]2)NC1=O", "=", 5.40),
    ("N=C(N)NCCC[C@@H]1NC(=O)[C@@H](Cc2ccccc2)NC(=O)[C@H](Cc2cnc[nH]2)NC(=O)[C@H](CCC(=O)O)NC(=O)[C@@H](NC(=O)[C@@H](CCCNC(=N)N)N2C(=O)CNC2=O)CSSC[C@@H](C(N)=O)NC(=O)[C@H](Cc2c[nH]c3ccccc23)NC1=O", "=", 5.13),
    ("N=C(N)NCCC[C@@H]1NC(=O)[C@@H](Cc2ccccc2)NC(=O)[C@H](Cc2cnc[nH]2)NC(=O)[C@H](CCC(=O)O)NC(=O)[C@@H](NC(=O)CN2C(=O)CNC2=O)CSSC[C@@H](C(N)=O)NC(=O)[C@H](Cc2c[nH]c3ccccc23)NC1=O", "<", 5.00),
    ("N=C(N)NCCC[C@@H]1NC(=O)[C@@H](Cc2ccccc2)NC(=O)[C@H](Cc2cnc[nH]2)NC(=O)[C@H](CCC(=O)O)NC(=O)[C@@H](N2C(=O)CNC2=O)CSSC[C@@H](C(N)=O)NC(=O)[C@H](Cc2c[nH]c3ccccc23)NC1=O", "=", 5.75),
    ("C[C@H]1NC(=O)[C@@H](NC(=O)CN2C(=O)N[C@H](C)C2=O)CSSC[C@@H](C(N)=O)NC(=O)[C@H](Cc2c[nH]c3ccccc23)NC(=O)[C@H](CCCNC(=N)N)NC(=O)[C@@H](Cc2ccccc2)NC(=O)[C@H](Cc2cnc[nH]2)NC1=O", "=", 6.45),
]
